src = patent US20150337013A1

Below: a set of entries, each annotated with reported Sa42 MIC.
Test system: Staphylococcus aureus SAU.42 (ATCC 29213)
Type: cell-based
Conditions: ATCC 29213
Protocol: Compounds according to Formula I were tested for antimicrobial activity against a panel of organisms. […] In all cases the final concentration of dimethyl sulfoxide incubated with cells is less than or equal to 1%. […] Following incubation, (18-20 hours at 37° C. with aeration at 200 rpm) growth was confirmed visually by placing plates over a viewing apparatus (stand with a mirror underneath) and then the optical density (OD600) was measured using a SpectraMax 340PC^384 plate reader. […]
measuredQuantity: Sa42 MIC (µg/mL)

1. CC(C)Sc1ccc(-c2csc(C(=O)N[C@@H](Cc3c[nH]c4ccccc34)C(=O)N[C@H](CC(N)=O)C(=O)N[C@@H](CC(=O)O)C(=O)N[C@@H]3C(=O)NCC(=O)N[C@@H](CCCN)C(=O)N[C@@H](CC(=O)O)C(=O)N[C@H](C)C(=O)N[C@@H](CC(=O)O)C(=O)NCC(=O)N[C@H](CO)C(=O)N[C@@H]([C@H](C)CC(=O)O)C(=O)N[C@@H](CC(=O)c4ccccc4N)C(=O)O[C@@H]3C)c2)cc1 ... 0.5
2. CCCCCCCc1csc(C(=O)N[C@@H](Cc2c[nH]c3ccccc23)C(=O)N[C@H](CC(N)=O)C(=O)N[C@@H](CC(=O)O)C(=O)N[C@@H]2C(=O)NCC(=O)N[C@@H](CCCN)C(=O)N[C@@H](CC(=O)O)C(=O)N[C@H](C)C(=O)N[C@@H](CC(=O)O)C(=O)NCC(=O)N[C@H](CO)C(=O)N[C@@H]([C@H](C)CC(=O)O)C(=O)N[C@@H](CC(=O)c3ccccc3N)C(=O)O[C@@H]2C)c1 ... 0.125
3. CCCCCCC12CCC(C(=O)N[C@@H](Cc3c[nH]c4ccccc34)C(=O)N[C@H](CC(N)=O)C(=O)N[C@@H](CC(=O)O)C(=O)N[C@@H]3C(=O)NCC(=O)N[C@@H](CCCN)C(=O)N[C@@H](CC(=O)O)C(=O)N[C@H](C)C(=O)N[C@@H](CC(=O)O)C(=O)NCC(=O)N[C@H](CO)C(=O)N[C@@H]([C@H](C)CC(=O)O)C(=O)N[C@@H](CC(=O)c4ccccc4N)C(=O)O[C@@H]3C)(CC1)CC2 ... 0.50
4. CC(C)Cc1ccc(C(C)C(=O)N[C@@H](Cc2c[nH]c3ccccc23)C(=O)N[C@H](CC(N)=O)C(=O)N[C@@H](CC(=O)O)C(=O)N[C@@H]2C(=O)NCC(=O)N[C@@H](CCCN)C(=O)N[C@@H](CC(=O)O)C(=O)N[C@H](C)C(=O)N[C@@H](CC(=O)O)C(=O)NCC(=O)N[C@H](CO)C(=O)N[C@@H]([C@H](C)CC(=O)O)C(=O)N[C@@H](CC(=O)c3ccccc3N)C(=O)O[C@@H]2C)cc1 (single isomer, unassigned) [45 isomer I] ... 8
5. CCCCCCCCCC(C)NC(=O)N[C@@H](Cc1c[nH]c2ccccc12)C(=O)N[C@H](CC(N)=O)C(=O)N[C@@H](CC(=O)O)C(=O)N[C@@H]1C(=O)NCC(=O)N[C@@H](CCCN)C(=O)N[C@@H](CC(=O)O)C(=O)N[C@H](C)C(=O)N[C@@H](CC(=O)O)C(=O)NCC(=O)N[C@H](CO)C(=O)N[C@@H]([C@H](C)CC(=O)O)C(=O)N[C@@H](CC(=O)c2ccccc2N)C(=O)O[C@@H]1C (single isomer, unassigned) [14 isomer II] ... 0.25
